Cited source: patent US11345678B2

# target or system: ROCK2 (Homo sapiens (Human))
# Sequence (O75116 whole entry): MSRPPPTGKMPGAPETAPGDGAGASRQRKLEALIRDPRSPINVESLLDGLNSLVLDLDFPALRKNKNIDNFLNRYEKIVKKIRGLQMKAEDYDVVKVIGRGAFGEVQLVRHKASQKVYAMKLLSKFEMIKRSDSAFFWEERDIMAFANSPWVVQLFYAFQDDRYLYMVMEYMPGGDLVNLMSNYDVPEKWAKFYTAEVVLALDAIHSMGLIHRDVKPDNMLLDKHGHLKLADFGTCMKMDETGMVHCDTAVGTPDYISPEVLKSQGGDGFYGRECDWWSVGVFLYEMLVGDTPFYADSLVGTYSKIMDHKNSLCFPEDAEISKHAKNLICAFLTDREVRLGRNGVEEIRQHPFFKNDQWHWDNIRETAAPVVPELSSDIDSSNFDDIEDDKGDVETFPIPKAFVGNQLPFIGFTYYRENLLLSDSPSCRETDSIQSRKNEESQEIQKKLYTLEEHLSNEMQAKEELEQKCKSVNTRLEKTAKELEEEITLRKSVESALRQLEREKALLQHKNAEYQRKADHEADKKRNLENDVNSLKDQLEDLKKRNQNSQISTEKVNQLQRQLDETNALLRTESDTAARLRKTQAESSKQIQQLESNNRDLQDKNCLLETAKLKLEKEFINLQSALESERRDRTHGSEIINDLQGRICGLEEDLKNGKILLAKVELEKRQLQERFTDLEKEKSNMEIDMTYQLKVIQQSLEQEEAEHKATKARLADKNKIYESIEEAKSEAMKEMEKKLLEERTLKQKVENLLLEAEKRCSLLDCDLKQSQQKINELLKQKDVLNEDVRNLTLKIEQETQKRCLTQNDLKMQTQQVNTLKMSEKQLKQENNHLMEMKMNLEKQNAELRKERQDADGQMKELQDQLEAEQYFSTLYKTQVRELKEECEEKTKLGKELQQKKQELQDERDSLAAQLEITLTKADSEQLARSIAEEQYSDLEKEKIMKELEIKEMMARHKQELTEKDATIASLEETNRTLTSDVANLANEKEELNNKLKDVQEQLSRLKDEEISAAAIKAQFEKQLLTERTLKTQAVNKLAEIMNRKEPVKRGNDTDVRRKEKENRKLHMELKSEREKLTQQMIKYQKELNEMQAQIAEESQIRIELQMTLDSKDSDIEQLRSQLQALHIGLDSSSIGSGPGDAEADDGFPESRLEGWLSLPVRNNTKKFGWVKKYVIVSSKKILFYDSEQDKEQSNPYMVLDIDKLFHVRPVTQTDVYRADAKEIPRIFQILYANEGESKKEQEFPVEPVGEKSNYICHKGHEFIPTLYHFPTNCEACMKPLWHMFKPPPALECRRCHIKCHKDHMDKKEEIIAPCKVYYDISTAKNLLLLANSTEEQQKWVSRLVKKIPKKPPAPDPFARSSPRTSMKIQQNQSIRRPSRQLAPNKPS
Consider the following molecules and their measured IC50 readings.
The reply should be a number in nM, with the unit left off.

COc1cccc(C(CCN(C)C)NC(=O)c2cccc(-c3ccc4[nH]ncc4c3)c2)c1 (centres unmarked)	10
COc1cccc(C(CN2CCCC2)NC(=O)c2cccc(-c3ccc4[nH]ncc4c3)c2)c1 (centres unmarked)	8
Cc1n[nH]c2ccc(-c3cccc(C(=O)NC(CN)c4cccc(F)c4F)c3)cc12 (centres unmarked)	23

IC50 value, target or system ROCK2 (Homo sapiens (Human)), for COc1cccc(C(CN)NC(=O)c2cccc(-c3ccc4[nH]nc(C5CC5)c4c3)c2)c1 (centres unmarked) : 8

IC50 value, target or system ROCK2 (Homo sapiens (Human)), for COc1cccc(C(CN)NC(=O)c2cccc(-c3ccc4[nH]nc(F)c4c3)c2)c1 (centres unmarked) [Compound 28] : 13

IC50 value, target or system ROCK2 (Homo sapiens (Human)), for NCC(NC(=O)c1cccc(-c2ccc3[nH]nc(F)c3c2)c1)c1cccc(F)c1 (centres unmarked) : 21

IC50 value, target or system ROCK2 (Homo sapiens (Human)), for O=C(NC(CO)c1cccc(F)c1)c1cccc(-c2ccc3[nH]ncc3c2)c1 (centres unmarked) : 6

IC50 value, target or system ROCK2 (Homo sapiens (Human)), for Cc1n[nH]c2ccc(-c3cccc(C(=O)NC(CN)c4cccc(OC5CC5)c4)c3)cc12 (centres unmarked) : 35
